Each entry below carries its recorded protein stability index.
B1: ZNF649 (parent)
chain: YQAGKPDALTKLEQGEPLWTLEDE

- Variants of: B1
- test-details: protein stability index of a GFP-peptide fusion (GPS, HEK-293T) (PSI 1-6); higher = more stable;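 note: lentivirally expressed fusions sorted by FACS into six bins by GFP to DsRed ratio, PSI derived from sequencing read proportions per bin multiplied by bin number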
- assay-setup: c terminus: a fixed tail appended
Note: the reply should be a number with no unit written.

mutations	protein stability index
D23L	2.97
G15N	4.11

From here, focus on the item given below.
// recorded protein stability index for L9M : 3.61
